- Test system: PqsR (pqsA promoter, PA14 mCTX::PpqsA-lux)
- ASSAY_COMMENT: Whole cell biosensor reporter assay, PA14 mCTX::PpqsA-lux
- Type: cell-based, Pseudomonas aeruginosa
- RECORDED_CONDITIONS: Pseudomonas aeruginosa, PA14, read-out: PA14 Remaining Activity %

COMPOUND | activity at 10 µM [%]
Cc1ccc(C2=NN(C=O)C(c3cccc(Nc4ccnc5cc(C(F)(F)F)ccc45)c3)C2)cc1 (centres unmarked) | 84.9
CC(=O)N1N=C(c2ccc(Cl)cc2)CC1c1cccc(Nc2ccnc3cc(C(F)(F)F)ccc23)c1 (centres unmarked) | 98.1
O=CN1N=C(c2ccc(Br)cc2)CC1c1cccc(Nc2ccnc3cc(C(F)(F)F)ccc23)c1 (centres unmarked) | 80.6
COc1cc(C2=NN(C=O)C(c3cccc(Nc4ccnc5cc(Cl)ccc45)c3)C2)cc(OC)c1OC (centres unmarked) | 110
CC(=O)N1N=C(c2ccc3c(c2)OCO3)CC1c1cccc(Nc2ccnc3cc(C(F)(F)F)ccc23)c1 (centres unmarked) | 99.6
COc1ccc(C2=NN(C=O)C(c3cccc(Nc4ccnc5cc(C(F)(F)F)ccc45)c3)C2)cc1 (centres unmarked) | 99.7
COc1ccc(C2=NN(C=O)C(c3cccc(Nc4ccnc5cc(Cl)ccc45)c3)C2)cc1 (centres unmarked) | 102
O=CN1N=C(c2ccc3c(c2)OCO3)CC1c1cccc(Nc2ccnc3cc(Cl)ccc23)c1 (centres unmarked) | 85.8
